The following molecules were reported with Ki values on Adenosine receptor A2a (Homo sapiens) in different studies.
Numbers only, in nM.

Worked cases, Ki given:
>>> reading("CCCn1c(=O)c2[nH]c(-c3ccc(OCC(=O)Nc4ccc(Br)cc4)cc3)c(Cl)c2n(CCC)c1=O")
126
>>> reading("CCCC(=O)N[C@H]1C[C@@H](n2cnc3c(NCC(c4ccccc4)c4ccccc4)nc(NCCc4cn(C(C)C)cn4)nc32)[C@H](O)[C@@H]1O")
39
>>> reading("Nc1nc(NC(=O)c2ccncc2)c([N+](=O)[O-])c(-c2ccco2)n1")
153
>>> reading("CCOC(=O)c1cnc(NCc2ccc(C(F)(F)F)cc2)n2nc(-c3ccco3)nc12")
209

# evaluate next
Reading of Ki for `Cc1ccc(-c2nc(N)nc3c2cnn3Cc2ccc(C(=O)NO)cc2)o1` with Adenosine receptor A2a (Homo sapiens): 2540

* * *

pKi: −log10 of the molar value.
The following molecules were reported with pKi values on Adenosine receptor A2a (Homo sapiens) in different studies.
pKi below 7 gives FALSE; pKi at or above it gives TRUE.

Observe how each entry below is paired with its result.
>>> category("CCNC(=O)[C@H]1O[C@@H](n2cnc3c(Nc4ccc(OCC(=O)Nc5ccc6c(c5)OCO6)cc4)ncnc32)[C@H](O)[C@@H]1O")
"FALSE"
>>> category("COc1cccc2cc(C(=O)NCCCNC(=O)c3cc4cccc(OC)c4oc3=N)c(=N)oc12")
"FALSE"
>>> category("O=C(Cc1cccc2ccccc12)Nc1nc2nn(CCCc3ccccc3)cc2c2nc(-c3ccco3)nn12")
"FALSE"
>>> category("Cc1ccc(-c2nc(N)c3nn(Cc4ccccc4F)cc3n2)o1")
"TRUE"
>>> category("CCOC(=O)c1nc(NC(=O)c2ccc(F)cc2)nc2nn(C(C)C)cc12")
"FALSE"
>>> category("CCCn1c(=O)c2c(nc3[nH]c(-c4ccc(F)cc4)cn32)n(Cc2ccccc2)c1=O")
"FALSE"
>>> category("COc1ccc(-c2cn3cc(CCc4ccccc4)cc(N)c3n2)cc1OC")
"FALSE"
>>> category("Cn1cc2c(nc(NC(=O)Cc3ccc(F)cc3)n3nc(-c4ccco4)nc23)n1")
"TRUE"
>>> category("O=C(Nc1nnc(-c2ccccc2)[nH]1)c1ccc(Cl)cc1")
"FALSE"
>>> category("CCOc1cccc2cc(-c3ccc(OC)cc3)c(=O)oc12")
"FALSE"

Does the molecule `CCCn1c(=O)c2[nH]c(-c3ccc(C(=O)O)cc3)c(O)c2n(CCC)c1=O` have recorded pKi that is 7 or more?
FALSE

Does the molecule `c1ccc(-c2ccc3nc(-c4ccco4)cn3c2)cc1` have recorded pKi that is 7 or more?
FALSE

Does the molecule `CCNC(=O)[C@H]1O[C@@H](n2cnc3c(Nc4ccc(OCC(=O)NCc5ccc(OC)cc5)cc4)ncnc32)[C@H](O)[C@@H]1O` have recorded pKi that is 7 or more?
FALSE

Does the molecule `Nc1nc(C(=O)NCCc2ccccn2)c2cccc(F)c2n1` have recorded pKi that is 7 or more?
TRUE

Does the molecule `Cn1cnc2c(NC3CCCCCC3)nc(Nc3ccccc3)nc21` have recorded pKi that is 7 or more?
FALSE

* * *

The following molecules were reported with pKi values on Adenosine receptor A2a (Homo sapiens, UniProt P29274) in different studies.
Sequence (P29274 whole entry): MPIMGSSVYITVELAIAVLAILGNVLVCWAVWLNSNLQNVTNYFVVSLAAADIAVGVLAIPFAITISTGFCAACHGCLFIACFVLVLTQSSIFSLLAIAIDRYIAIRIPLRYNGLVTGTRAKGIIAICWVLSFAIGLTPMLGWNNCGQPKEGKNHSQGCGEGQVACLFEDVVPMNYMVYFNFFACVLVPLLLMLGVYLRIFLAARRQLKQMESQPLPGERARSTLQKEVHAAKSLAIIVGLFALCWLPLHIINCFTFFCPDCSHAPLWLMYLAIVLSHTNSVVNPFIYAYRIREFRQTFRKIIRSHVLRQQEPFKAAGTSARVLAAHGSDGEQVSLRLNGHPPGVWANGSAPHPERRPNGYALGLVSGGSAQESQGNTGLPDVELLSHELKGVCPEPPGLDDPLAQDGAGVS
One number for each entry, as −log10 of the molar value.

>>> reading("NC(=O)C1CCN(CCC(=O)Nc2ccc(-c3cn4c(=O)n(-c5ccccc5)nc4c(N)n3)cc2)CC1")
7.10

Look at each molecule and report its pKi.
1. CCN(C(C)=O)c1ccc(OC)c2nc(NC(=O)N3CCC(S(=O)(=O)c4cccc(C(F)(F)F)c4)CC3)sc12
2. CCCN1C(=O)N2C[C@@H](CC)N=C2c2[nH]c(C34CCC(O)(CC3)CC4)nc21
3. OC[C@H]1O[C@@H](n2cnc3c(NC4CC4c4ccccc4)ncnc32)[C@H](O)[C@@H]1O (stereo not given in full)

6.28
5.36
5.60
